Target: human dopamine D3 receptor (hD3R) (Homo sapiens, UniProt P35462)
Sequence (P35462 whole entry): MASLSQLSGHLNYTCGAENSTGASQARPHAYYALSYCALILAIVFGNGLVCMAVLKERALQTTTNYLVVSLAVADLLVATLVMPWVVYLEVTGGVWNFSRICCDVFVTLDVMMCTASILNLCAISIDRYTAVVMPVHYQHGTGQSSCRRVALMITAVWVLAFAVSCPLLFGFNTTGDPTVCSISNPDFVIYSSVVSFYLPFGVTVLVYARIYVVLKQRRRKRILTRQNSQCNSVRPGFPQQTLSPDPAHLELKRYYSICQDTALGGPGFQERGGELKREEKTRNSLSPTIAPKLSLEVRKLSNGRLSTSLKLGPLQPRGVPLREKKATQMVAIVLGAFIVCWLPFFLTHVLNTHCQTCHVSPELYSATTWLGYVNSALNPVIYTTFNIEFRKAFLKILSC
Assay: GPCR functional assay, agonist effect
recorded_endpoint: EC50
Returns: string containing the numeric result and its unit.

stdin: Please look up its EC50: Cc1cc(O)c2c(c1)C(=O)c1cc(O)cc(O)c1C2=O [emodin]
stdout: 21.9 µM

====

Target: human vasopressin V1A receptor (hV1AR) (Homo sapiens)
Sequence (P37288 whole entry): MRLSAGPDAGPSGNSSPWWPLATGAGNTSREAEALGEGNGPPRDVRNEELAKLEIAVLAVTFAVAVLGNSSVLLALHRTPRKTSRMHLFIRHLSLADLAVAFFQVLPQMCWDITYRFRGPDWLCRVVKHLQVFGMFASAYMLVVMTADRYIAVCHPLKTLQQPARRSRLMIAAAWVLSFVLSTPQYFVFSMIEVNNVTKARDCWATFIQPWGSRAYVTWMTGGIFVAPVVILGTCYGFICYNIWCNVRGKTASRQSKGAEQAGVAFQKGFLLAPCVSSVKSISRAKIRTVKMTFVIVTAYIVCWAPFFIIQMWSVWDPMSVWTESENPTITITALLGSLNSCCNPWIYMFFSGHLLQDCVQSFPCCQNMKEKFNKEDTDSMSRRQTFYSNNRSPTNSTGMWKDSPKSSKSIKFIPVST
recorded_endpoint: IC50 (µM)
Field format: number, assumed µM, no unit text.

stdin: Please look up its IC50: Cc1cc(O)c2c(c1)C(=O)c1cc(O)cc(O)c1C2=O [emodin]
stdout: 10.2
